Biological target: RPS6KA3 KD1 KD2 (human)
Assay: radiometric filter-binding kinase assay
Conditions: compound 1.0 µM
Reported Metric: residual activity (%)

Take a look at these entries with their results.
- Molecule: "CNC(=O)C1[C@H]2O[C@@](C)([C@@H]1N)n1c3ccccc3c3c4c(c5c6ccccc6n2c5c31)C(=O)NC4 (some centres not stated)"
  Reported Metric: "residual activity"
  Numeric Value: 6
- Molecule: "O=C1NC(=S)N[C@@H]1Cc1c[nH]c2ccccc12"
  Reported Metric: "residual activity"
  Numeric Value: 78
- Molecule: "O=C(Nc1ccccc1-c1cn2c(CN3CCNCC3)csc2n1)c1cnc2ccccc2n1"
  Reported Metric: "residual activity"
  Numeric Value: 84
- Molecule: "Cc1cc(SCc2sc(-c3ccc(C(F)(F)F)cc3)nc2C)ccc1OCC(=O)O"
  Reported Metric: "residual activity"
  Numeric Value: 94

1. NC(=O)Nc1ccc2c(c1)/C(=C/c1cc(-c3cccnc3)c[nH]1)C(=O)N2
2. Oc1ccc(/C=C/c2cc(O)cc(O)c2)cc1
Req: From the recorded data, which exceeds the other in residual activity: 1 or 2 ? In your reply, give the label of the chosen option.
Resp: 2
(2: 77%, 1: 32%)

###

Biological target: JAK2 JH1 JH2 (human) (UniProt O60674)
Sequence (O60674 whole entry, looked up): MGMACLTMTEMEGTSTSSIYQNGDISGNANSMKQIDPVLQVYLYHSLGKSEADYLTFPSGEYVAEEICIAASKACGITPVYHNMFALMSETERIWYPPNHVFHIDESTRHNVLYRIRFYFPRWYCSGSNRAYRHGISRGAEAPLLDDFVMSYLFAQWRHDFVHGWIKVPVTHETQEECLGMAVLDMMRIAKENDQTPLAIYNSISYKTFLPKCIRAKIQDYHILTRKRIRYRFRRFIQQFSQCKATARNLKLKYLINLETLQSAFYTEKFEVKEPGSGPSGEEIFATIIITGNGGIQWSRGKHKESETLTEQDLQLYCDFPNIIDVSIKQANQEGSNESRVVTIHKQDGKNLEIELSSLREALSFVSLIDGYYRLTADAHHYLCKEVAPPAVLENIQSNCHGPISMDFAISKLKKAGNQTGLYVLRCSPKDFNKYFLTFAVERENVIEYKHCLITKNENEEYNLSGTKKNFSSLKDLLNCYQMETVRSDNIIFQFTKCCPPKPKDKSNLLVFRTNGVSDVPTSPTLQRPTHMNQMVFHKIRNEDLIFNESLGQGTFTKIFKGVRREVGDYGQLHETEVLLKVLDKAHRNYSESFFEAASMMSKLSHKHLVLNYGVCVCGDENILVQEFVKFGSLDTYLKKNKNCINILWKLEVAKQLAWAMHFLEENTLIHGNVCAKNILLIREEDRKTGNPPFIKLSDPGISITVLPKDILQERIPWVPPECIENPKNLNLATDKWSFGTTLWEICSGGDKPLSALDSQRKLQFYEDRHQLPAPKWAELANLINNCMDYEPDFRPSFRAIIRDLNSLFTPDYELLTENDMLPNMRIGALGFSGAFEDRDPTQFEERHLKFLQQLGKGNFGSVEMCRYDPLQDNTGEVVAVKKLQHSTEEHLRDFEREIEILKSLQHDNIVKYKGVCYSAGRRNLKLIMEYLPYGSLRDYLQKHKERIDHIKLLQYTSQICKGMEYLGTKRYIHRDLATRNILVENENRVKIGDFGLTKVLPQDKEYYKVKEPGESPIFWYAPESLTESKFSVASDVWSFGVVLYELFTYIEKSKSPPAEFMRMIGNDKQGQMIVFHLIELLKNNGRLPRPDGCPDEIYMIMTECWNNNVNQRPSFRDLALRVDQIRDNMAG
Assay: radiometric filter-binding kinase assay
Settings: compound 1.0 µM
Reported Metric: residual activity (%)

- Molecule: "CCCCCc1ccc(/C=C/[C@H](O)[C@@H](CO)NC)cc1"
  residual activity [%]: 98

P. CCNc1nc(Nc2cc(F)c(C(=O)N3CCOCC3)cc2OC)ncc1C(F)(F)F
Q. O=C(NOC[C@H](O)CO)c1ccc(F)c(F)c1Nc1ccc(I)cc1Cl
R. O=C(NOCC(O)CO)c1ccc(F)c(F)c1Nc1ccc(I)cc1Cl (stereo not given)
Req: Ascending sort, residual activity. // list labels; follow requested order
Resp: R, Q, P

###

Target: IKBKB (human) (UniProt O14920)
Sequence (O14920 whole entry, looked up): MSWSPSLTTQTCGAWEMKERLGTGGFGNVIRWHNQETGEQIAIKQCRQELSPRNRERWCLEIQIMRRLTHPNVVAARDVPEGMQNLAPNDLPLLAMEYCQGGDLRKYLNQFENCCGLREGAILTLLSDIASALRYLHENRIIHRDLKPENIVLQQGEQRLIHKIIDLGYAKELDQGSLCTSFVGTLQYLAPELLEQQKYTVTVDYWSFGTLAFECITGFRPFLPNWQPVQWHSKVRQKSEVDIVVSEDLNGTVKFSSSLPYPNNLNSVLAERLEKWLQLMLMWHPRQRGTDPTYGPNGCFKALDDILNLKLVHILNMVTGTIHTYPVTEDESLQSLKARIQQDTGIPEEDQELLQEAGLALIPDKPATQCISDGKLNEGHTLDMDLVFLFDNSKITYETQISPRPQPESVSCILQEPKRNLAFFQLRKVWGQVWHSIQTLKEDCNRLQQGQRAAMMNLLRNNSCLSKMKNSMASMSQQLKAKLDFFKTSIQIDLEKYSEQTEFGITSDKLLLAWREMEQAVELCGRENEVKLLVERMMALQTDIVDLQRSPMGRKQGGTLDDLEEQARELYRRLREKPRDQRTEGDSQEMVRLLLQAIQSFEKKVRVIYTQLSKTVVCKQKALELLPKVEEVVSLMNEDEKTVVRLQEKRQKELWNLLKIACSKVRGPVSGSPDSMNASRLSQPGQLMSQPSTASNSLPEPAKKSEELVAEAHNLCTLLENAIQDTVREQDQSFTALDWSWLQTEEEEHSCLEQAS
Test: radiometric filter-binding kinase assay
Conditions: compound 10.0 µM
Reported Metric: residual activity (%)

In the examples that follow, each entry is paired with its recorded residual activity.
- Compound: "CCOC(=O)c1ccc(N2NC(=O)/C(=C/c3ccc([N+](=O)[O-])o3)C2=O)cc1"
  residual activity [%]: 108
- Compound: "O=C(O)c1ccc(-c2c[nH]c3ncc(-c4ccccc4)cc23)cc1C1CCCC1"
  residual activity [%]: 64

I. N#Cc1c(C2CCNCC2)cc(-c2c(O)cccc2OCC2CC2)nc1N
II. Cc1ccc(Sc2cnc(Nc3cccc(Br)n3)s2)cc1C(=O)N1CCN(C(=O)CN)CC1
Req: Just tell me: smaller residual activity value, I or II ? Kindly give the label for the entry you pick.
Resp: I

###

Target: MAP2K1 (human)
Assay: radiometric filter-binding kinase assay
Details: compound 100.0 µM
Reported Metric: residual activity (%)

- Smi: "Cc1cc(N=Nc2cc(S(=O)(=O)O)c(C)cc2C)c(N)cc1O"
  Reported Metric: "residual activity"
  Numeric Value: 103

A. COC(=O)/C=C/C(=O)OC
B. N#Cc1c(O)c2c(-c3ccc(-c4ccccc4O)cc3)csc2[nH]c1=O
Req: Would you let me know which has the greater residual activity value, A or B ? Give the chosen item's label as your response.
Resp: A
(A: 109%, B: 29%)

###

Target: RPS6KA3 KD1 KD2 (human) (UniProt P51812)
Sequence (P51812 whole entry, looked up): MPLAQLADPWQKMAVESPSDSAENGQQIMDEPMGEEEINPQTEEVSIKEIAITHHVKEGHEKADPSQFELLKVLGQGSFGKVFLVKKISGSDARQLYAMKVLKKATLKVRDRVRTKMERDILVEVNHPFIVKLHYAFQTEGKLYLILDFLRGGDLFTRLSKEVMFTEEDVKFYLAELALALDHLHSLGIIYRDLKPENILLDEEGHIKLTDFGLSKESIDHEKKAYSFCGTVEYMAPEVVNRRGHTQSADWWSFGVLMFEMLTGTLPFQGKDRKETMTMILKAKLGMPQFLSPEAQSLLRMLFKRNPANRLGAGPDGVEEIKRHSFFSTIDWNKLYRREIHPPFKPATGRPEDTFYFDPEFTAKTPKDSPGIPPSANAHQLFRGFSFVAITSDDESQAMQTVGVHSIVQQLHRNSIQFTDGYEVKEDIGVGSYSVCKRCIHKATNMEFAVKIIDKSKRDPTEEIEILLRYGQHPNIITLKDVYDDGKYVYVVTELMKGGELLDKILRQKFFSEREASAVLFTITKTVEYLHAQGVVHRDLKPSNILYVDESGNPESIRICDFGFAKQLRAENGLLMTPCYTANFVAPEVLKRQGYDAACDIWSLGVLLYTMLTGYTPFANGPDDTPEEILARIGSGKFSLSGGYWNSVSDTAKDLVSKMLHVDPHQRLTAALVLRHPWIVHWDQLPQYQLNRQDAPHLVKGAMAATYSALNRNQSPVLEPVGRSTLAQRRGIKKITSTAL
Experiment: radiometric filter-binding kinase assay
Settings: compound 10.0 µM
Reported Metric: residual activity (%)

Known residual activity results, listed for orientation:
- Molecule: "O=C(O)c1cc(N=Nc2ccc(S(=O)(=O)Nc3ccccn3)cc2)ccc1O"
  Measurement Unit: "%"
  residual activity: 91
- Molecule: "Cn1nc(Nc2ccc(F)cc2)c2c(N)ncnc21"
  Measurement Unit: "%"
  residual activity: 107
- Molecule: "O=C(N[C@@H](COc1ccc2[nH]c(=O)[nH]c2c1)c1ccccc1)c1cccn(Cc2ccc(F)c(F)c2)c1=O"
  Measurement Unit: "%"
  residual activity: 85
- Molecule: "NC(=O)c1c(NC(=O)C2CC2)sc2c1CCCC2"
  Measurement Unit: "%"
  residual activity: 89
- Molecule: "CCNc1nc(Nc2cc(F)c(C(=O)N3CCOCC3)cc2OC)ncc1C(F)(F)F"
  Measurement Unit: "%"
  residual activity: 9

a. N#Cc1c(C2CCNCC2)cc(-c2c(O)cccc2OCC2CC2)nc1N
b. CCc1cncnc1N1CCN(Cc2nc3cc(C(F)(F)F)ccc3[nH]2)CC1
c. O=C1NC(=S)N[C@@H]1Cc1c[nH]c2ccccc12
d. NC(=O)c1cc2c(-c3cccc(-c4ccccc4)c3)cnc(N)c2s1
Req: Hey, can you sort those molecules up there by residual activity, smallest first? Enter labels, ranked according to the request.
Resp: a, b, d, c
(a: 11%, b: 25%, d: 53%, c: 100%)

A. CCCC(CCC)C(=O)O
B. COc1cc(C(=O)N2CCOCC2)c(F)cc1Nc1ncc(C(F)(F)F)c(NC2CC2)n1
C. Oc1ccc2ccccc2c1SSc1c(O)ccc2ccccc12
Req: Please give the order of these molecules when sorted by residual activity, largest value leading. Enter labels, ranked according to the request.
Resp: A, B, C
(A: 94%, B: 25%, C: 6%)

A. Cc1ccc(=O)n(-c2ccccc2)c1
B. c1ccc2c(-c3cnn4cc(-c5ccc(N6CCNCC6)cc5)cnc34)ccnc2c1
Req: Endpoint returns the identifier whose residual activity is numerically larger, either A or B . Returns: label corresponding to the selected item.
Resp: A
(A: 94%, B: 57%)

1. C=CC(=O)N1CCC[C@@H](n2nc(-c3ccc(Oc4ccccc4)cc3)c3c(N)ncnc32)C1
2. O=c1c(O)c(-c2ccc(O)c(O)c2)oc2cc(O)c(O)c(O)c12
Req: Of 1 and 2 , which one carries the higher reported residual activity? Which one? Tell me its label.
Resp: 1
(1: 68%, 2: 12%)
